- EXPERIMENTAL_DETAILS: in vitro
- Format: in vitro ADME
- PARTICULARS: human, plasma, pH 7.4, % Intact Peptide in Plasma after 1 h
OUTCOME_MEASURE: remaining at 1 h, 100 µM (%)
Your answer should be a plain number; it is taken to be in %.

# input compound: CN[C@@H](CCCNC(=N)N)C(=O)N[C@@H](CCCNC(=N)N)C(=O)N1CCC[C@H]1C(=O)N[C@@H](Cc1ccc(O)cc1)C(=O)N[C@@H](CC1CC1)C(=O)N[C@@H](CC(C)C)C(=O)O [Compound 41] ; wanted: its remaining at 1 h, 100 µM
92

###

- TARGET_SYSTEM: hNTS2R (Homo sapiens)
- Sequence (O95665 whole entry): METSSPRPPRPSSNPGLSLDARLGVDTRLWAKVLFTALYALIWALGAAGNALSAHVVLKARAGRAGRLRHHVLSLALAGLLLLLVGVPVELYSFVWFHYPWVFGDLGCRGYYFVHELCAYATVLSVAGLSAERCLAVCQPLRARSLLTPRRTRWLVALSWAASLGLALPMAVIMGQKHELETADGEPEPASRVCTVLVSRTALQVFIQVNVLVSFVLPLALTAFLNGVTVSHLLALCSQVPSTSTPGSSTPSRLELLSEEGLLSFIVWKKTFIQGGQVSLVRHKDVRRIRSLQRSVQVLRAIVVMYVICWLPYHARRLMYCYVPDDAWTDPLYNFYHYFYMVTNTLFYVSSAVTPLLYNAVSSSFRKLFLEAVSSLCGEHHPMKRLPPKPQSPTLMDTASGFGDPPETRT
- EXPERIMENTAL_DETAILS: radioligand competition binding with [3H]UR-MK300 at intact HEK293T-hNTS2R cells
- PARTICULARS: [3H]UR-MK300 c = 10 nM, read-out: pKi ± SD NTS2R (converted)
OUTCOME_MEASURE: Ki (nM)
Your answer should be a plain number; it is taken to be in nM.

# input compound: CN[C@@H](CCCNC(=N)N)C(=O)N[C@@H](CCCNC(=N)NC(=O)NCCCCN)C(=O)N1CCC[C@H]1C(=O)N[C@@H](Cc1ccc(O)cc1)C(=O)N[C@H](C(=O)N[C@@H](CC(C)C)C(=O)O)C(C)(C)C ; wanted: its Ki
20.9

Try this compound next: CC(C)C[C@H](NC(=O)[C@@H](NC(=O)[C@H](Cc1ccc(O)cc1)NC(=O)[C@@H]1CCCN1C(=O)[C@H](CCCNC(=N)NC(=O)NCCCCNC(=O)CN1CCN(CC(=O)O)CCN(CC(=O)O)CCN(CC(=O)O)CC1)N(C)C(=O)[C@@H](N)CCCNC(=N)N)C(C)(C)C)C(=O)O
224

Try this compound next: CN[C@@H](CCCNC(N)=NC(=O)NCCCCN)C(=O)N[C@@H](CCCNC(=N)N)C(=O)N1CCC[C@H]1C(=O)N[C@@H](Cc1ccc(O)cc1)C(=O)N[C@H](C(=O)N[C@@H](CC(C)C)C(=O)O)C(C)(C)C
19.1

Try this compound next: CN[C@@H](CCCNC(=N)N)C(=O)N[C@@H](CCCNC(=N)N)C(=O)N1CCC[C@H]1C(=O)N[C@@H](Cc1ccc(O)cc1)C(=O)N[C@H](C(=O)N[C@@H](CC(C)C)C(=O)O)C(C)(C)C [Compound 3, reference compound]
9.77

Try this compound next: CN[C@@H](CCCNC(N)=NC(=O)NCCCCN)C(=O)N[C@@H](CCCNC(=N)N)C(=O)N1CCC[C@H]1C(=O)N[C@@H](C(=O)N[C@H](C(=O)N[C@@H](CC(C)C)C(=O)O)C(C)(C)C)C(C)(C)c1ccc(O)cc1
398

###

- EXPERIMENTAL_DETAILS: in vivo
- PARTICULARS: female, NMRI nude (nu/nu), mouse, total radioactivity, Uptake (%ID/g) intestine
- Experimental: 8–12 weeks old female NMRI nude (nu/nu) mice (body weight 22–32 g) (Charles River, Sulzfeld, Germany) were kept under specified pathogen free (SPF) conditions at 23 °C, 55% relative humidity and a 12 h light/dark cycle in the central animal facility of the University of Regensburg using type III cages from Tecniplast (Hohenpeißenberg, Germany). […] Aliquots of the tracer stock were diluted in PBS to give a volume of 200 µL. […] Mice were killed 45 min p.i. and analyzed as described above. […]
OUTCOME_MEASURE: tissue uptake at 25 min (%ID/g)
Your answer should be a plain number; it is taken to be in %ID/g.

# input compound: CC[C@H](C)[C@H](NC(=O)[C@@H](NC(=O)[C@@H]1CCCN1C(=O)[C@H](CCCNC(=N)N)NC(=O)[C@H](CCCNC(N)=NC(=O)NCCCCNC(=O)CN1CCN(CC(=O)O)CCN(CC(=O)O)CCN(CC(=O)O)CC1)NC)C(C)(C)c1ccc(O)cc1)C(=O)N[C@@H](CC(C)C)C(=O)O [[^68Ga]56, metal not drawn] ; wanted: its tissue uptake at 25 min
2.4

###

- EXPERIMENTAL_DETAILS: in vivo
- PARTICULARS: female, NMRI nude (nu/nu), mouse, total radioactivity, Uptake (%ID/g) gall bladder (bile)
OUTCOME_MEASURE: tissue uptake at 25 min
The answer should read as a number with its unit following.

# input molecule: CC[C@H](C)[C@H](NC(=O)[C@@H](NC(=O)[C@@H]1CCCN1C(=O)[C@H](CCCNC(=N)N)NC(=O)[C@H](CCCNC(N)=NC(=O)NCCCCNC(=O)CN1CCN(CC(=O)O)CCN(CC(=O)O)CCN(CC(=O)O)CC1)NC)C(C)(C)c1ccc(O)cc1)C(=O)N[C@@H](CC(C)C)C(=O)O [[^68Ga]56, metal not drawn] ; wanted: its tissue uptake at 25 min
1.9 %ID/g

###

- EXPERIMENTAL_DETAILS: in vivo
- PARTICULARS: female, NMRI nude (nu/nu), mouse, total radioactivity, Uptake (%ID/g) femur
OUTCOME_MEASURE: tissue uptake at 0.75 h (%ID/g)
Your answer should be a plain number; it is taken to be in %ID/g.

# input compound: CC[C@H](C)[C@H](NC(=O)[C@@H](NC(=O)[C@@H]1CCCN1C(=O)[C@H](CCCNC(=N)N)NC(=O)[C@H](CCCNC(N)=NC(=O)NCCCCNC(=O)CN1CCN(CC(=O)O)CCN(CC(=O)O)CCN(CC(=O)O)CC1)NC)C(C)(C)c1ccc(O)cc1)C(=O)N[C@@H](CC(C)C)C(=O)O [[^68Ga]56, metal not drawn] ; wanted: its tissue uptake at 0.75 h
0.73

###

- EXPERIMENTAL_DETAILS: in vivo
- PARTICULARS: female, NMRI nude (nu/nu), mouse, total radioactivity, Uptake (%ID/g) kidney
OUTCOME_MEASURE: tissue uptake at 10 min (%ID/g)
Your answer should be a plain number; it is taken to be in %ID/g.

# input molecule: CC[C@H](C)[C@H](NC(=O)[C@@H](NC(=O)[C@@H]1CCCN1C(=O)[C@H](CCCNC(=N)N)NC(=O)[C@H](CCCNC(N)=NC(=O)NCCCCNC(=O)CN1CCN(CC(=O)O)CCN(CC(=O)O)CCN(CC(=O)O)CC1)NC)C(C)(C)c1ccc(O)cc1)C(=O)N[C@@H](CC(C)C)C(=O)O [[^68Ga]56, metal not drawn] ; wanted: its tissue uptake at 10 min
47

###

Answer each item with its documented remaining at 1 h, 100 µM.
- EXPERIMENTAL_DETAILS: in vitro
- Assay type: in vitro ADME
- PARTICULARS: human, plasma, pH 7.4, % Intact Peptide in Plasma after 1 h

# input molecule: CC[C@H](C)[C@H](NC(=O)[C@@H](NC(=O)[C@@H]1CCCN1C(=O)[C@H](CCCNC(=N)N)NC(=O)[C@H](CCCNC(=N)N)NC)C(C)(C)c1ccc(O)cc1)C(=O)N[C@@H](CC(C)C)C(=O)O ; wanted: its remaining at 1 h, 100 µM
90%

Try this molecule next: CN[C@@H](CCCNC(=N)N)C(=O)N[C@@H](CCCNC(N)=NC(=O)NCCCCNC(=O)CN1CCN(CC(=O)O)CCN(CC(=O)O)CCN(CC(=O)O)CC1)C(=O)N1CCC[C@H]1C(=O)N[C@@H](Cc1ccc(O)cc1)C(=O)N[C@H](C(=O)N[C@@H](CC(C)C)C(=O)O)C(C)(C)C
> 99%

###

- TARGET_SYSTEM: hNTS1R (Homo sapiens, UniProt P30989)
- Construct: intact HT-29 colon carcinoma cells expressing the hNTS1R; host or cells: HT-29 human colon carcinoma cells
- Sequence (P30989 whole entry): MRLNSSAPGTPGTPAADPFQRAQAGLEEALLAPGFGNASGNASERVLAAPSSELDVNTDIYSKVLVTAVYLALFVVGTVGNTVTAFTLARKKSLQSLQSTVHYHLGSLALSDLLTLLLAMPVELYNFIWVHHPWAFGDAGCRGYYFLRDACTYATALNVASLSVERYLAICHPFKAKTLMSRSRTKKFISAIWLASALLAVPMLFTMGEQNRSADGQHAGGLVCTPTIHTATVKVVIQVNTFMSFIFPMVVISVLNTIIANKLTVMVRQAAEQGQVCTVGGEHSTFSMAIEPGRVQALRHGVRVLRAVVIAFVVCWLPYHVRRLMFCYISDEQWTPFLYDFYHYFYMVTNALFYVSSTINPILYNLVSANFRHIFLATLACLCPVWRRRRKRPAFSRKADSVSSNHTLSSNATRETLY
- EXPERIMENTAL_DETAILS: radioligand competition binding with [3H]UR-MK300 at intact HT-29 cells
- PARTICULARS: [3H]UR-MK300 c = 1 nM, HT-29 cells, 23 °C
Answer each item with its documented pKi ± SD NTS1R.
Simply state the number, no unit and no words.

# input molecule: CN[C@@H](CCCNC(N)=NC(=O)NCCCCNC(=O)CN1CCN(CC(=O)O)CCN(CC(=O)O)CCN(CC(=O)O)CC1)C(=O)N[C@@H](CCCNC(=N)N)C(=O)N1CCC[C@H]1C(=O)N[C@H](C(=O)N[C@H](C(=O)N[C@@H](CC(C)C)C(=O)O)C(C)(C)C)C(C)(C)c1ccc(O)cc1 ; wanted: its pKi ± SD NTS1R
7.67

Try this molecule next: CC(C)C[C@H](NC(=O)[C@@H](NC(=O)[C@H](Cc1ccc(O)cc1)NC(=O)[C@@H]1CCCN1C(=O)[C@H](CCCNC(N)=NC(=O)NCCCCNC(=O)CN1CCN(CC(=O)O)CCN(CC(=O)O)CCN(CC(=O)O)CC1)N(C)C(=O)[C@@H](N)CCCNC(=N)N)C(C)(C)C)C(=O)O
7.70

Try this molecule next: CN[C@@H](CCCNC(N)=NC(=O)NCCOCCOCCNC(=O)CN1CCN(CC(=O)O)CCN(CC(=O)O)CCN(CC(=O)O)CC1)C(=O)N[C@@H](CCCNC(=N)N)C(=O)N1CCC[C@H]1C(=O)N[C@@H](Cc1ccc(O)cc1)C(=O)N[C@H](C(=O)N[C@@H](CC(C)C)C(=O)O)C(C)(C)C
8.13

Try this molecule next: CN[C@@H](CCCNC(=N)N)C(=O)N[C@@H](CCCNC(N)=NC(=O)NCCCCNC(=O)CN1CCN(CC(=O)O)CCN(CC(=O)O)CCN(CC(=O)O)CC1)C(=O)N1CCC[C@H]1C(=O)N[C@@H](Cc1ccc(O)cc1)C(=O)N[C@H](C(=O)N[C@@H](CC(C)C)C(=O)O)C(C)(C)C
7.80

Try this molecule next: CN[C@@H](CCCNC(N)=NC(=O)NCCCCNC(=O)CN1CCN(CC(=O)O)CCN(CC(=O)O)CCN(CC(=O)O)CC1)C(=O)N[C@@H](CCCNC(=N)N)C(=O)N1CCC[C@H]1C(=O)N[C@@H](Cc1ccc(O)cc1)C(=O)N[C@H](C(=O)N[C@@H](CC(C)C)C(=O)O)C(C)(C)C
8.01
